Reference source: patent US6087493A

- System: Raji
- measurement-notes: Cytotoxicity (MTT) Raji
- Format: cell-based, human
- conditions-used: raji cells
property-name: IC50 (µM)
Answers are plain numbers, in µM.

q: Value lookup for IC50; key = C[n+]1ccc(-c2c3nc(c(-c4cc[n+](C)cc4)c4ccc([n-]4)c(-c4cc[n+](C)cc4)c4nc(c(-c5cc[n+](C)cc5)c5ccc2[n-]5)C=C4)C=C3)cc1.[Cl-].[Cl-].[Cl-].[Cl-].[Pt+2] [TMPyP4 PtII]
a: 64.6

---

- Tested on: MCF-7
- measurement-notes: Cytotoxicity (MTT) MCF-7
- Format: cell-based, human
- conditions-used: Homo sapiens, MCF7; MCF-7 (breast), 4-7 days; read-out: IC 50 cytotoxicity
- Experimental: The cells were cultured in the presence of the porphyrins incubator for 4-7 days and then treated with 3-(4,5-dimethylthiazol-2-yl)-2,5-diphenyl-tetrazolium bromide (MTT). Formazan concentration was quantitated by absorbance at 570 nm.
property-name: IC50 (µM)
Numbers only, in µM.

q: I have this compound here, C[n+]1ccc(-c2c3nc(c(-c4cc[n+](C)cc4)c4ccc([nH]4)c(-c4cc[n+](C)cc4)c4nc(c(-c5cc[n+](C)cc5)c5ccc2[nH]5)C=C4)C=C3)cc1 , and I need its recorded IC50.
a: 49.6
